tested system: KRAS G12C (Homo sapiens, UniProt P01116, G12C)
Construct: 4 nM KRAS; aa1-188 containing the G12V, G12C, G12A or G12S amino acid substitution
Sequence (P01116 1-188 isoform P01116-2 G12C): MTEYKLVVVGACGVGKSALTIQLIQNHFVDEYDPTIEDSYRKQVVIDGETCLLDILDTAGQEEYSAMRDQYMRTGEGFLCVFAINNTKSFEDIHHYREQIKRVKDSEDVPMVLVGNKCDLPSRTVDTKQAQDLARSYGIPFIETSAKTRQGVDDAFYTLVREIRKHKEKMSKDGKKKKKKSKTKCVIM
test name: HTRF nucleotide exchange assay (NEA), KRAS G12C
Format: biochemical
readout label: IC50

// solved cases for IC50 follow
[[record]]
compound = "O=C1CC2(CCN(c3nc(OCC45CCCN4CCC5)nc4c(F)c(-c5cc(O)cc6ccccc56)ncc34)C2)CN1 (centres unmarked)"
result = "100 to 10000 nM"

[[record]]
compound = "OCC1CCN(c2nc(OCC34CCCN3CCC4)nc3c(F)c(-c4cc(O)cc5ccccc45)ncc23)C1 (centres unmarked)"
result = "100 to 10000 nM"


Proceeding to the next compound to report its IC50.
Lab note: measured IC50 of O=C1CCN(c2nc(OCC34CCCN3CCC4)nc3c(F)c(-c4cc(O)cc5ccccc45)ncc23)CCO1 was 100 to 10000 nM

----------
tested system: KRAS WT (Homo sapiens, UniProt P01116)
Construct: Recombinant human RAS protein (2 nM); aa1-188 KRAS WT
Sequence (P01116 1-188 isoform P01116-2): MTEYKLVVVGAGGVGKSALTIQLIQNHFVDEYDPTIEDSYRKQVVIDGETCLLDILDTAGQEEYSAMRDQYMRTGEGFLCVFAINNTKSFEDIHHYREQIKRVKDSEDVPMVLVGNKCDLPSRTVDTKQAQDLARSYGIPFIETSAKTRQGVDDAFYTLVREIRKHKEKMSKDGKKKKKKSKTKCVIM
test name: HTRF nucleotide exchange assay (NEA), KRAS WT
Assay type: biochemical
pIC50: −log10 of the molar value.
readout label: pIC50

// solved cases for pIC50 follow
[[record]]
compound = "O=C1CC2(CCN(c3nc(OCC45CCCN4CCC5)nc4c(F)c(-c5cc(O)cc6ccccc56)ncc34)CC2)CN1 [Example 81]"
result = "5.00 to 7.00"

[[record]]
compound = "Oc1cc(-c2ncc3c(N4CC5COCC5C4)nc(OCC45CCCN4CCC5)nc3c2F)c2ccccc2c1 (stereo not shown) [Example 37]"
result = "5.00 to 7.00"

[[record]]
compound = "COCCCNc1nc(OCC23CCCN2CCC3)nc2c(F)c(-c3cc(O)cc4ccccc34)ncc12 [Example 11]"
result = "5.00 to 7.00"

[[record]]
compound = "[O-][S+]1CCCN(c2nc(OCC34CCCN3CCC4)nc3c(F)c(-c4cc(O)cc5ccccc45)ncc23)CC1 (stereo not shown) [Example 90]"
result = "7.00 to 8.00"

[[record]]
compound = "Oc1cc(-c2ncc3c(NC4CCCCCC4)nc(OCC45CCCN4CCC5)nc3c2F)c2ccccc2c1 [Example 36]"
result = "5.00 to 7.00"

[[record]]
compound = "COCCNc1nc(OCC23CCCN2CCC3)nc2c(F)c(-c3cc(O)cc4ccccc34)ncc12 [Example 12]"
result = "5.00 to 7.00"


Lab note: measured pIC50 of COC1CCCN(c2nc(OCC34CCCN3CCC4)nc3c(F)c(-c4cc(O)cc5ccccc45)ncc23)C1 (stereo not shown) [Example 42] was 5.00 to 7.00

Lab note: measured pIC50 of Oc1cc(-c2ncc3c(N4CC5CCC(C5)C4)nc(OCC45CCCN4CCC5)nc3c2F)c2ccccc2c1 [Example 47] was 7.00 to 8.00

Lab note: measured pIC50 of Oc1cc(-c2ncc3c(N4CCC5CCC(C4)O5)nc(OCC45CCCN4CCC5)nc3c2F)c2ccccc2c1 (stereo not shown) [Example 80] was 5.00 to 7.00

Lab note: measured pIC50 of CC1CN(c2nc(OCC34CCCN3CCC4)nc3c(F)c(-c4cc(O)cc5ccccc45)ncc23)CCC1O (stereo not shown) [Example 68] was 5.00 to 7.00

Lab note: measured pIC50 of Oc1cc(-c2ncc3c(N4CCCC5(COC5)C4)nc(OCC45CCCN4CCC5)nc3c2F)c2ccccc2c1 [Example 52] was 7.00 to 8.00

Lab note: measured pIC50 of Oc1cc(-c2ncc3c(N4CCc5cn[nH]c5C4)nc(OCC45CCCN4CCC5)nc3c2F)c2ccccc2c1 [Example 62] was 5.00 to 7.00

Lab note: measured pIC50 of Oc1cc(-c2ncc3c(N4CCOCC4)nc(OCC45CCCN4CCC5)nc3c2F)c2ccccc2c1 [Example 5] was 5.00 to 7.00

----------
tested system: KRAS G12C (Homo sapiens, UniProt P01116, G12C)
Construct: 4 nM KRAS; aa1-188 containing the G12V, G12C, G12A or G12S amino acid substitution
test name: HTRF nucleotide exchange assay (NEA), KRAS G12C
Type: biochemical
pIC50: −log10 of the molar value.
readout label: pIC50

// solved cases for pIC50 follow
[[record]]
compound = "COC(=O)CCNc1nc(OCC23CCCN2CCC3)nc2c(F)c(-c3cc(O)cc4ccccc34)ncc12 [Example 25]"
tested_system = "KRAS G12C (Homo sapiens, UniProt P01116, G12C)"
result = "5.00 to 7.00"

[[record]]
compound = "Oc1cc(-c2ncc3c(N4CCC(O)CC4)nc(OCC45CCCN4CCC5)nc3c2F)c2ccccc2c1 [Example 41]"
tested_system = "KRAS G12C (Homo sapiens, UniProt P01116, G12C)"
result = "7.00 to 8.00"

[[record]]
compound = "Oc1cc(-c2ncc3c(N4CCCSCC4)nc(OCC45CCCN4CCC5)nc3c2F)c2ccccc2c1 [Example 38]"
tested_system = "KRAS G12C (Homo sapiens, UniProt P01116, G12C)"
result = "≥ 8.00"

[[record]]
compound = "Nc1cc2ccccc2c(-c2ncc3c(N4CCCOCC4)nc(OCC45CCCN4CCC5)nc3c2F)n1 [Example 91]"
tested_system = "KRAS G12C (Homo sapiens, UniProt P01116, G12C)"
result = "5.00 to 7.00"

[[record]]
compound = "CC1CN(c2nc(OCC34CCCN3CCC4)nc3c(F)c(-c4cc(O)cc5ccccc45)ncc23)CCCO1 (centres unmarked) [Example 16]"
tested_system = "KRAS G12C (Homo sapiens, UniProt P01116, G12C)"
result = "7.00 to 8.00"


Form field pIC50 for item Oc1cc(-c2ncc3c(N4CCCC5(CCOC5)C4)nc(OCC45CCCN4CCC5)nc3c2F)c2ccccc2c1 (centres unmarked) [Example 56] on KRAS G12C (Homo sapiens, UniProt P01116, G12C): 5.00 to 7.00

Form field pIC50 for item CC1CN(c2nc(OCC34CCCN3CCC4)nc3c(F)c(-c4cc(O)cc5ccccc45)ncc23)CCO1 (centres unmarked) [Example 6] on KRAS G12C (Homo sapiens, UniProt P01116, G12C): 5.00 to 7.00

Form field pIC50 for item Oc1cc(-c2ncc3c(N4CCC5(CCOC5)CC4)nc(OCC45CCCN4CCC5)nc3c2F)c2ccccc2c1 [Example 8] on KRAS G12C (Homo sapiens, UniProt P01116, G12C): 5.00 to 7.00

----------
The entries below are paired with their reported pIC50.
tested system: KRAS WT (Homo sapiens, UniProt P01116)
Construct: Recombinant human RAS protein (2 nM); aa1-188 KRAS WT
test name: HTRF nucleotide exchange assay (NEA), KRAS WT
Format: biochemical
pIC50: −log10 of the molar value.

[[record]]
structure_notation = "Oc1cc(-c2ncc3c(N4CCC(O)CC4)nc(OCC45CCCN4CCC5)nc3c2F)c2ccccc2c1"
result = "7.00 to 8.00"


Lab note: measured pIC50 of N#CC1CCN(c2nc(OCC34CCCN3CCC4)nc3c(F)c(-c4cc(O)cc5ccccc45)ncc23)CC1 was 5.00 to 7.00

Lab note: measured pIC50 of COCC1(CNc2nc(OCC34CCCN3CCC4)nc3c(F)c(-c4cc(O)cc5ccccc45)ncc23)COC1 was 5.00 to 7.00

This collection of values is drawn from patent US20240279241A1.
